- protocol: acute peroral toxicity in the mouse
- condition-info: in vivo, po, peroral, read-out: Acute peroral toxicity
- Protocol: Determination of toxicity of β-elemonic acid was carried out on the mouse and the rat. Acute peroral toxicity in the mouse: 4.640 mg/kg.
assay-endpoint: LD50 (mg/kg)
Dear colleague, please return just the value in mg/kg, with no unit written.

What measured LD50 goes with `CC(C)=CCC[C@H](C(=O)O)[C@@H]1CC[C@]2(C)C3=C(CC[C@@]12C)[C@@]1(C)CCC(=O)C(C)(C)[C@@H]1CC3` ?
4.64

###

- protocol: therapeutic range (therapeutic indices)
- Type: in vivo
- condition-info: rat, in vivo, po; dose threshold value of stomach intolerance / ED50 in the arthritis model; read-out: Therapeutic index 2 (4./1.)
Measured selectivity ratio of individual entries
No unit in the answer, please; the number alone is enough.

{"compound": "CC(C)=CCC[C@H](C(=O)O)[C@@H]1CC[C@]2(C)C3=C(CC[C@@]12C)[C@@]1(C)CCC(=O)C(C)(C)[C@@H]1CC3", "selectivity ratio": 68}

# next compound below
What measured selectivity ratio goes with COc1ccc2c(c1)c(CC(=O)O)c(C)n2C(=O)c1ccc(Cl)cc1 [Indomethacin, reference compound] ?
21.6
